Data origin, for the record: ChEMBL document CHEMBL1144593

Can you tell me IC50 for the items I'm about to list?
target: Cathepsin F (Homo sapiens); assay: Inhibition of human recombinant cathepsin F
Sequence (Q9UBX1 271-484 limits assumed): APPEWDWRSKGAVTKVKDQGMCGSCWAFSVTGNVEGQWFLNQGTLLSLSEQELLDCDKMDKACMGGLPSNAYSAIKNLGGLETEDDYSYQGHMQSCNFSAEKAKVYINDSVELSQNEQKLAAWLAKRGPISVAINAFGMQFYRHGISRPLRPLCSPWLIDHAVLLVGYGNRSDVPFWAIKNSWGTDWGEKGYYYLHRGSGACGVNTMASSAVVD

Use these answered entries as a reference point.
# molecule, study_target, result
rows = [
    ("O=C1O[C@H]2CN1CC[C@@H]2Br", "Cathepsin F (Homo sapiens)", "> 10 µM"),
    ("Cc1cccc(O[C@@H]2CCNC[C@H]2O)c1C", "Cathepsin F (Homo sapiens)", "> 100 µM"),
    ("Cc1cccc(OCC2CN(C)C(=O)O2)c1C (stereo not given)", "Cathepsin F (Homo sapiens)", "> 100 µM"),
]

For every item in the list below, what is its measured IC50?
1. S=C1O[C@@H]2CN1CC[C@@H]2Oc1ccccc1
2. Cc1cccc(O[C@@H]2CCNC[C@@H]2O)c1C

1. > 10 µM
2. > 100 µM
